The values you see were collected from ChEMBL document CHEMBL1944582.

target: Serine/threonine-protein kinase B-raf (Homo sapiens, UniProt P15056, V600E); assay: Inhibition of B-Raf V600E mutant-mediated Erk phosphorylation in human MALME-3M cells after 1 hr by fluorescence analysis; type: cell-based
Sequence (P15056 2-766 V600E limits assumed): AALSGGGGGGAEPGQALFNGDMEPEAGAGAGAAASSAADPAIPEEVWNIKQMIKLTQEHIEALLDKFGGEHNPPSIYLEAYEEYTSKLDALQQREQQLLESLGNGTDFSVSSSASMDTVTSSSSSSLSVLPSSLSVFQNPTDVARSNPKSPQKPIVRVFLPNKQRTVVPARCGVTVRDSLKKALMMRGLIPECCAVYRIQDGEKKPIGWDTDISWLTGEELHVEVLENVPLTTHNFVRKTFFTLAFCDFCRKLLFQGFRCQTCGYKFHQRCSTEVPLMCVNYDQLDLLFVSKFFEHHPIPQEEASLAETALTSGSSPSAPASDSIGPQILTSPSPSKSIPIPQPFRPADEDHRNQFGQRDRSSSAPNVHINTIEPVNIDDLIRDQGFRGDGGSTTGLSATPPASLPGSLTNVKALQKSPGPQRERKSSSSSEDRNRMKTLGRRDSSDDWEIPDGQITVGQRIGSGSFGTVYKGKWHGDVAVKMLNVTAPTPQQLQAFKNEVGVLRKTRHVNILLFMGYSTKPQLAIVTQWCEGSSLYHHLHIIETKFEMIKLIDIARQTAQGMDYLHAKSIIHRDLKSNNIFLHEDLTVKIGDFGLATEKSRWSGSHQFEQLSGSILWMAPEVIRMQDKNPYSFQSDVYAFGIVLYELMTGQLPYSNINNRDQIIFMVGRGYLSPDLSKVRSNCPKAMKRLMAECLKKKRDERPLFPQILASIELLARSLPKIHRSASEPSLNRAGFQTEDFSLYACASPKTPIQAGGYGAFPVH
I'd be grateful if you could share measured IC50 for these entries.
Answers are plain numbers, in nM.

INSERT INTO measurements (smilesrepresentation, unitspec, reported) VALUES
  ('CCCS(=O)(=O)Nc1ccc(F)c(C(=O)Nc2cnc3[nH]ccc3c2)c1F', 'nM', 94),
  ('CCCS(=O)(=O)Nc1ccc(Cl)c(C(=O)Nc2cnc3[nH]ncc3c2)c1F', 'nM', 56);

Data request: Look up IC50: "CCCS(=O)(=O)Nc1ccc(Cl)c(C(=O)Nc2cnc3[nH]nc(OC)c3c2)c1F"
Data returned: 20
